- ASSAY: Selectivity ratio of IC50 for inhibition of human mitochondrial ribosome Mit 13 A1555G mutant hybridized with Mycobacterium smegmatis ribosomes to IC50 for inhibition of Mycobacterium smegmatis wild type ribosomes
OBSERVABLE: Ratio IC50

SMILES_STR	OBSERVABLE	DATA_VALUE
NC[C@@H]1O[C@H](O[C@H]2[C@@H](O)[C@H](O[C@@H]3[C@@H](O)[C@H](N)C[C@H](N)[C@H]3O[C@H]3O[C@H]4[C@@H](OCCC[C@H]4O)[C@H](O)[C@H]3N)O[C@@H]2CO)[C@H](N)[C@@H](O)[C@@H]1O	Ratio IC50	363
C[C@@H]1C[C@@H](O)[C@H]2O[C@H](O[C@H]3[C@H](O[C@@H]4O[C@H](CO)[C@@H](O[C@H]5O[C@@H](CN)[C@@H](O)[C@H](O)[C@H]5N)[C@H]4O)[C@@H](O)[C@H](N)C[C@@H]3N)[C@H](N)[C@@H](O)[C@@H]2O1	Ratio IC50	367
NC[C@@H]1O[C@H](O[C@H]2[C@@H](O)[C@H](O[C@@H]3[C@@H](O)[C@H](N)C[C@H](N)[C@H]3O[C@H]3O[C@H](CO)[C@@H](O)[C@H](O)[C@H]3N)O[C@@H]2CO)[C@H](N)[C@@H](O)[C@@H]1O	Ratio IC50	364
NC[C@@H]1O[C@H](O[C@H]2[C@@H](O)[C@H](O[C@@H]3[C@@H](O)[C@H](N)C[C@H](N)[C@H]3O[C@H]3O[C@H]4[C@@H](OCCC[C@@H]4O)[C@H](O)[C@H]3N)O[C@@H]2CO)[C@H](N)[C@@H](O)[C@@H]1O	Ratio IC50	592
NC[C@@H]1O[C@H](O[C@H]2[C@@H](O)[C@H](O[C@@H]3[C@@H](O)[C@H](N)C[C@H](N)[C@H]3O[C@H]3O[C@H]4[C@@H](OC[C@H]4O)[C@H](O)[C@H]3N)O[C@@H]2CO)[C@H](N)[C@@H](O)[C@@H]1O	Ratio IC50	585
NC[C@@H]1O[C@H](O[C@H]2[C@@H](O)[C@H](O[C@@H]3[C@@H](O)[C@H](N)C[C@H](N)[C@H]3O[C@H]3O[C@H]4[C@@H](OCC[C@H]4O)[C@H](O)[C@H]3N)O[C@@H]2CO)[C@H](N)[C@@H](O)[C@@H]1O	Ratio IC50	182
NC[C@@H]1O[C@H](O[C@H]2[C@@H](O)[C@H](O[C@@H]3[C@@H](O)[C@H](N)C[C@H](N)[C@H]3O[C@H]3O[C@H]4[C@@H](OCC[C@@H]4O)[C@H](O)[C@H]3N)O[C@@H]2CO)[C@H](N)[C@@H](O)[C@@H]1O	Ratio IC50	1100
C[C@@H]1C[C@H](O)[C@H]2O[C@H](O[C@H]3[C@H](O[C@@H]4O[C@H](CO)[C@@H](O[C@H]5O[C@@H](CN)[C@@H](O)[C@H](O)[C@H]5N)[C@H]4O)[C@@H](O)[C@H](N)C[C@@H]3N)[C@H](N)[C@@H](O)[C@@H]2O1	Ratio IC50	317
